Below, each of the compounds is paired with its reported MBC value.
tested on: M. luteus ATCC 10240; test: Antibacterial screening, broth microdilution (MIC/MBC); assay type: cell-based, Micrococcus luteus; settings: Micrococcus luteus, ATCC10240; M. luteus ATCC 10240; read-out: MBC

{"columns": ["smiles.notation", "MBC"],
 "data": [
  ["COc1ccccc1-c1c(P(=O)(C2CCCCC2)C2CCCCC2)c(OC)c2ccccc2c1OC", "> 1000 µg/mL"],
  ["COc1ccccc1-c1c(P(=O)(C2CCCCC2)C2CCCCC2)c(O)c2ccccc2c1O", "> 1000 µg/mL"],
  ["COc1cc(OC)c(-c2c(P(=O)(C3CCCCC3)C3CCCCC3)c(O)c3ccccc3c2OC)c(OC)c1", "> 1000 µg/mL"]
]}
